assay target: pig kidney fucokinase (Sus scrofa)
Construct: L-Fucokinase was purified to apparent homogeneity from the cytosolic fraction of pig kidney; from tissue; host or cells: pig kidney, cytosolic fraction
Sequence (I3LTC2 1-1083): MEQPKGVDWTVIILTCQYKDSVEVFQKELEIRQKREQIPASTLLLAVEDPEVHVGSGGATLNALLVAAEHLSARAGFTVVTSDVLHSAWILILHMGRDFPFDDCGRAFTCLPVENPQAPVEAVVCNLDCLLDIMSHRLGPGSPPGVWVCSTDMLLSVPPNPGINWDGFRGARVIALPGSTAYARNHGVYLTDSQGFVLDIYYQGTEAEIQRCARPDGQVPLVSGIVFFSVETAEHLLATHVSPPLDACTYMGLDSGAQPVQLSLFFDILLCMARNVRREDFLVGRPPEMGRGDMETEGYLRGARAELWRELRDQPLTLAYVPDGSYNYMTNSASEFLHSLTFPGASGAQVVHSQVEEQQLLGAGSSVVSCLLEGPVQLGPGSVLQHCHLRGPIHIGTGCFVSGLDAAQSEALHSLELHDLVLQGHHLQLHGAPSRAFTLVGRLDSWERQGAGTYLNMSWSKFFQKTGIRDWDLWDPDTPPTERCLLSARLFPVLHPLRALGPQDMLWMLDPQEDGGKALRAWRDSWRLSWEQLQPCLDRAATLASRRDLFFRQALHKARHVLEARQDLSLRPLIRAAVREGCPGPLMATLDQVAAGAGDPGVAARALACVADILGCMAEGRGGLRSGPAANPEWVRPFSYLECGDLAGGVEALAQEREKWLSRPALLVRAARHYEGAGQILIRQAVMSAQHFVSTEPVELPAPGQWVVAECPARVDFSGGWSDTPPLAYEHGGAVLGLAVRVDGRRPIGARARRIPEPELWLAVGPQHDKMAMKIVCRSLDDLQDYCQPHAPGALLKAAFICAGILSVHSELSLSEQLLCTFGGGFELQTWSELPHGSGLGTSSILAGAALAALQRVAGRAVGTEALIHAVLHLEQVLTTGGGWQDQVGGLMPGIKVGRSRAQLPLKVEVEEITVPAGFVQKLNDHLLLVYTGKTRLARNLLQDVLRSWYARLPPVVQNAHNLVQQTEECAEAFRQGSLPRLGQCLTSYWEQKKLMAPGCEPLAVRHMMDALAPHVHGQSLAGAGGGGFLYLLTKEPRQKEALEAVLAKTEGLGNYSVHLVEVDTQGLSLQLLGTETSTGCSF
test details: Inhibition of [3H]L-fucose phosphorylation by unlabeled monosaccharides
Type: biochemical
protocol conditions: unlabeled monosaccharide 500 μM; radiolabeled L-fucose substrate 100 μM
For each record, write down the corresponding Relative Activity (%).
Express your answer as a number followed by its unit.

Need Relative Activity (%), item O=C[C@H](O)[C@@H](O)[C@H](O)CO
103%

Item O=C[C@@H](O)[C@@H](O)[C@H](O)[C@H](O)CO has what recorded Relative Activity (%)?
100%

Please look up its Relative Activity (%): O=C[C@H](O)[C@@H](O)[C@@H](O)[C@H](O)CO
100%

For the molecule C[C@@H](O)[C@H](O)[C@H](O)[C@@H](O)C=O , what Relative Activity (%) is on record?
102%

Which Relative Activity (%) reading was recorded for the molecule O=C[C@H](O)[C@H](O)[C@H](O)CO ?
96%

Item O=C[C@H](O)[C@@H](O)[C@H](O)[C@H](O)CO has what recorded Relative Activity (%)?
100%

Return reported Relative Activity (%); argument: O=C[C@@H](O)[C@H](O)[C@H](O)CO
80%

Looking for the measured Relative Activity (%) of O=CC[C@@H](O)[C@H](O)[C@H](O)CO , can you help?
92%

So what's the measured Relative Activity (%) for this one? C[C@H](O)[C@@H](O)[C@@H](O)[C@H](O)C=O
23%

Relative Activity (%) for C[C@@H](O)[C@@H](O)[C@H](O)[C@H](O)C=O ?
102%
